test: modulators of CIT2-GFP expression in yeast, confirmation, S. cerevisiae, GFP fusion, cherry picks, mother/daughter gates (AID 2274); settings: S. cerevisiae CIT2-GFP strain, flow cytometry, 3 h; measured here: mother cell gate; at 10 µM; stronger effect = higher value
Recorded GFP response, % of DMSO by entry
Response body: numeric value in %, unit text excluded.

Worked examples follow.
>>> endpoint_result("O=C(O)c1ccccc1C(=O)Nc1ccccc1")
101
>>> endpoint_result("O=C(O)Cc1sc(Nc2ccccc2)nc1-c1cccs1")
103
>>> endpoint_result("O=C(COc1ccccc1[N+](=O)[O-])Nc1ccc(NC(=O)c2cc3ccccc3o2)cc1")
91.8
>>> endpoint_result("Cc1ccn2c(NC3CCCCC3)c(-c3cccc(-c4cccc(Cl)c4)c3)nc2c1")
88.6
>>> endpoint_result("COc1ccccc1N1C(=O)CC(Sc2nccc(C)n2)C1=O (configuration not stated)")
99.3
>>> endpoint_result("Cc1cc(C)n2nc(C(=O)NC(c3ccccc3)c3ccccc3)nc2n1")
112
>>> endpoint_result("CC(=O)c1cc(NC(=O)c2ccc(C)cc2)c(=O)oc1C")
96.8
>>> endpoint_result("O=c1[nH]c2c(=O)[nH]cnc2nc1-c1ccccc1")
89.5
>>> endpoint_result("Clc1ccc(-n2cccc2)cn1")
101
>>> endpoint_result("CN1C(=O)/C(=N\\OC(=O)c2cccc3ccccc23)c2ccccc21")
80.5

We next turn to a different molecule, shown below.
Task: Fill blank: measured GFP response, % of DMSO of the molecule Cc1cc(C)c(OCC(=O)Nc2nc(-c3ccccn3)cs2)c(C)c1 is ____.
Output: 88.8
